Measured values drawn from patent US20240390512A1 for this set.

Biological target: T1, human CDH6 (full-length and EC domain deletion mutants) (Homo sapiens, UniProt P55285)
T1 construct: each one of the five EC domains could be deleted from full-length human CDH6; 3xFLAG (deletion mutants only, from the vector p3×FLAG-CMV-9); expressed in transfected cells; host or cells: 293α cells
T1 sequence (P55285 160-790): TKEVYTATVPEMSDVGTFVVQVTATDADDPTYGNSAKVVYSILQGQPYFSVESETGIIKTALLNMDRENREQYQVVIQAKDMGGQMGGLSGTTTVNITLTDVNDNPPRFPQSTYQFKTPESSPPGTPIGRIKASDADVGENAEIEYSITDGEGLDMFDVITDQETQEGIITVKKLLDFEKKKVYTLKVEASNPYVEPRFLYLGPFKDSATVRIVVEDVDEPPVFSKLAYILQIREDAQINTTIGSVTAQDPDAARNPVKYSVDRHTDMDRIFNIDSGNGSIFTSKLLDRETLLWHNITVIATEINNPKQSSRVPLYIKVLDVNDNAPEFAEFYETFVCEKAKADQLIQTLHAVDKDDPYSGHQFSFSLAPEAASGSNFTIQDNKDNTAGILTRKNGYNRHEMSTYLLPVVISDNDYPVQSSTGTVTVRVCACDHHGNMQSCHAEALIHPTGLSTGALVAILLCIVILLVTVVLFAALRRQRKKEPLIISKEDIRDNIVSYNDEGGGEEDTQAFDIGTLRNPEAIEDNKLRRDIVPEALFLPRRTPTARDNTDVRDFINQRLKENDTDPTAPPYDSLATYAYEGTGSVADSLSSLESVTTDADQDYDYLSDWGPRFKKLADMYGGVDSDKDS
Experiment: Epitope analysis of rat anti-CDH6 antibody by flow cytometry using domain deletion mutants
Format: binding
Details: flow cytometry; transfected 293α cells; antibody 20 nM
TEST READOUT: binding to EC1 deletion mutant

rG055: rat anti-human CDH6 monoclonal antibody produced by hybridoma rG055; variable regions SEQ ID NO: 20 and 25 (antibody, listed as Rattus norvegicus, V domains shown) VL: DVQMTHSPSYLAASPGESVSISCKTSKNISNYLVWYQQKPGEAYKLLIYSGSTLQSGTPSRFSGSGSGTDFTLTIRSLEPEDFGLYFCQQYYEKPFTFGSGTKLEIKRA VH: EVQLQESGPGLVRPSQSLSLSCSVTDYSITSNYWGWIRRFPGNKMEWMGYITYSGYTSYNPSLQSRISITRDTSKNQFFLQLNSVTAEDTATYYCARSINHGGYSYVVDAWGPGASVTVSS
bind
